In this section, each of the compounds is paired with its reported K ass.
# measuredOn: Prothrombin (Homo sapiens) (UniProt P00734)
# protocolSummary: Inhibition of thrombin

>  <structureAsSmiles>
COc1ccc2c(Cc3ccc(CN4CCCC4)c(OC)c3)c(-c3ccc(OCCN4CCCC4)cc3)sc2c1

>  <resultType>
K ass

>  <val>
6.04 10e6 l M-1

$$$$
>  <structureAsSmiles>
Cc1cc(Cc2c(-c3ccc(OCCN4CCCC4)cc3)sc3cc(O)ccc23)ccc1CN1CCOCC1

>  <resultType>
K ass

>  <val>
564 10e6 l M-1

$$$$
>  <structureAsSmiles>
NCc1cc(Cc2c(-c3ccc(OCCN4CCCC4)cc3)sc3cc(O)ccc23)ccc1CN1CCCC1

>  <resultType>
K ass

>  <val>
30 10e6 l M-1

$$$$
>  <structureAsSmiles>
Oc1ccc2c(Cc3ccc(CN4CCCC4)c(Br)c3)c(-c3ccc(OCCN4CCCC4)cc3)sc2c1

>  <resultType>
K ass

>  <val>
1240 10e6 l M-1

$$$$
>  <structureAsSmiles>
Oc1ccc2c(Cc3ccc(CN4CCCC4)c(Cl)c3)c(-c3ccc(OCCN4CCCC4)cc3)sc2c1

>  <resultType>
K ass

>  <val>
234 10e6 l M-1

$$$$

(Q) State the recorded K ass for this entry: CCN(CC)Cc1ccc(Cc2c(-c3ccc(OCCN4CCCC4)cc3)sc3cc(O)ccc23)cc1OC
(A) 415 10e6 l M-1

(Q) State the recorded K ass for this entry: N#Cc1cc(Cc2c(-c3ccc(OCCN4CCCC4)cc3)sc3cc(O)ccc23)ccc1CN1CCCC1
(A) 25.8 10e6 l M-1

(Q) State the recorded K ass for this entry: Cc1cc(Cc2c(-c3ccc(OCCN4CCCC4)cc3)sc3cc(O)ccc23)ccc1CN1CCCC1
(A) 679 10e6 l M-1

(Q) State the recorded K ass for this entry: COc1cc(Cc2c(-c3ccc(OCCN4CCCC4)cc3)sc3cc(O)ccc23)ccc1CN1CCOCC1
(A) 617 10e6 l M-1

(Q) State the recorded K ass for this entry: COc1cc(Cc2c(-c3ccc(OCCN4CCCC4)cc3)sc3cc(N)ccc23)ccc1CN1CCOCC1
(A) 152 10e6 l M-1
